We begin with a simple list: items and their reported antibacterial activity (dilution susceptibility test).
tested on: S. aureus 1725; experiment: Antibacterial activity in vitro, NCCLS dilution method (Table 10); format: cell-based; conditions: S. aureus 1725, Gram +, LRSA
Respond with the number and no other words.

CN[C@H](CC(C)C)C(=O)N[C@H]1C(=O)N[C@@H](CC(N)=O)C(=O)N[C@H]2C(=O)N[C@H]3C(=O)N[C@H](C(=O)N[C@H](C(=O)O)c4cc(O)cc(O)c4-c4cc3ccc4O)[C@H](O)c3ccc(c(Cl)c3)Oc3cc2cc(c3O[C@@H]2O[C@H](CO)[C@@H](O)[C@H](O)[C@H]2O[C@H]2C[C@](C)(N)[C@H](O)[C@H](C)O2)Oc2ccc(cc2Cl)[C@H]1O [Vancomycin] : 1
CC(=O)NC[C@H]1CN(c2ccc(N3CCOCC3)c(F)c2)C(=O)O1 [Linezolid] : 4

Next compound, antibacterial activity (dilution susceptibility test) to be filled in.
Record summary for C[C@@H](O)[C@H]1C(=O)N2C(C(=O)O)=C(S[C@@H]3CN[C@H](C(=O)N(C)C)C3)[C@H](C)[C@H]12 [Meropenem] : reported antibacterial activity (dilution susceptibility test) = 0.25
